Source of measurements: the supplement of paper PMC12406974

test system: U2OS; assay: maximum observed lethal fraction; higher = more cell death; conditions: 3.16 µM;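 further: FLICK assay: SYTOX Green fluorescence of dead cells tracked over time after drugging in 96-well plates, with total cell counts taken from Triton X-100 lysed wells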
Please enter 1 (yes) where maximum observed lethal fraction is greater than or equal to 0.6, and 0 (no) where it is lower.

Assess whether reported maximum observed lethal fraction for "C#C[C@@]1(O)[C@@H](CO)O[C@@H](n2ccc(N)nc2=O)[C@@H]1O" sits at 0.6 or higher.
1 (yes)

Assess whether reported maximum observed lethal fraction for COc1cc([C@@H]2c3cc4c(cc3[C@@H](O[C@@H]3O[C@@H]5CO[C@@H](C)O[C@H]5[C@H](O)[C@H]3O)[C@H]3COC(=O)[C@H]23)OCO4)cc(OC)c1O [Etoposide] sits at 0.6 or higher.
0 (no)

Assess whether reported maximum observed lethal fraction for "NC1(C(=O)N[C@@H](CCO)c2ccc(Cl)cc2)CCN(c2nc[nH]c3nccc2-3)CC1" sits at 0.6 or higher.
0 (no)

Assess whether reported maximum observed lethal fraction for "CC1(C)CCC(c2ccc(Cl)cc2)=C(CN2CCN(c3ccc(C(=O)NS(=O)(=O)c4ccc(N[C@H](CCN5CCOCC5)CSc5ccccc5)c(S(=O)(=O)C(F)(F)F)c4)cc3)CC2)C1" sits at 0.6 or higher.
0 (no)

Assess whether reported maximum observed lethal fraction for "C=CC(=O)Nc1ccc(C(=O)Nc2[nH]nc3c2CN(C(=O)N[C@H](CN(C)C)c2ccccc2)C3(C)C)cc1" sits at 0.6 or higher.
0 (no)

Assess whether reported maximum observed lethal fraction for "CN(C)C(=O)c1cc2cnc(Nc3ccc(N4CCNCC4)cn3)nc2n1C1CCCC1" sits at 0.6 or higher.
0 (no)

Assess whether reported maximum observed lethal fraction for COc1cc([C@@H]2c3cc4c(cc3[C@@H](O[C@@H]3O[C@@H]5CO[C@@H](c6cccs6)O[C@H]5[C@H](O)[C@H]3O)[C@H]3COC(=O)[C@H]23)OCO4)cc(OC)c1O [Teniposide] sits at 0.6 or higher.
1 (yes)

Assess whether reported maximum observed lethal fraction for Nc1ncnc2c1ncn2[C@@H]1O[C@H](CO)C[C@H]1O [Cordycepin] sits at 0.6 or higher.
0 (no)

Assess whether reported maximum observed lethal fraction for "CC(C)C[C@@H](C=O)NC(=O)[C@H](CC(C)C)NC(=O)[C@H](CC(C)C)NC(=O)OCc1ccccc1" sits at 0.6 or higher.
1 (yes)

Assess whether reported maximum observed lethal fraction for "CC[C@@]1(O)C(=O)OCc2c1cc1n(c2=O)Cc2cc3ccccc3nc2-1" sits at 0.6 or higher.
1 (yes)

Assess whether reported maximum observed lethal fraction for "O=C(NOC[C@H](O)CO)c1ccc(F)c(F)c1Nc1ccc(I)cc1F" sits at 0.6 or higher.
0 (no)

Assess whether reported maximum observed lethal fraction for "C[C@H]1CCC/C=C/[C@@H]2C[C@H](O)C[C@H]2[C@H](O)/C=C/C(=O)O1" sits at 0.6 or higher.
1 (yes)

Assess whether reported maximum observed lethal fraction for "CN(C)C/C=C/C(=O)Nc1ccc(C(=O)Nc2cccc(Nc3ncc(Cl)c(-c4c[nH]c5ccccc45)n3)c2)cc1" sits at 0.6 or higher.
1 (yes)

Assess whether reported maximum observed lethal fraction for "CNCc1ccc(-c2[nH]c3cc(F)cc4c3c2CCNC4=O)cc1" sits at 0.6 or higher.
0 (no)

Assess whether reported maximum observed lethal fraction for "CCN1CCN(Cc2ccc(Nc3ncc(F)c(-c4cc(F)c5nc(C)n(C(C)C)c5c4)n3)nc2)CC1" sits at 0.6 or higher.
0 (no)
